Where do the numbers come from? From paper PMC5540273.

test system: HIPK4; details: concentration: 1 μM, replicates: in singlicate; n = 1;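 also: KINOMEscan kinase panel screen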
Quantity: %Inh (%)
Output spec: scalar in %, unitless text.

# example entries with known answers
Compound: CC(=O)N1CCN(c2ccc(Nc3nccc(-c4sc(C(C)C)nc4-c4cccc(NS(=O)(=O)c5cccc(Cl)c5)c4)n3)cn2)CC1 [GSK1660437]
Unit Symbol: %
%Inh: 82
--
Compound: Nc1n[nH]c2cnc(-c3ccccc3)cc12 [SB-642124]
Unit Symbol: %
%Inh: 7
--
Compound: Cl.c1ccc(-c2ccc3c(Nc4ccc5[nH]ccc5c4)ccnc3c2)nc1 [GW440138]
Unit Symbol: %
%Inh: 0
--
Compound: Cn1cc(-c2ccc3c(c2)CCN3C(=O)Cc2cccc(F)c2)c2c(N)ncnc21 [GSK2603358]
Unit Symbol: %
%Inh: 0

Here is another compound to look at.
QUERY: Fill blank: measured %Inh of the compound CNC(=O)c1ccccc1Nc1nc(Nc2ccc(N3CCOCC3)cc2)ncc1Cl.Cl [GSK1576028] is ____.
RESULT: 99.3

---

test system: ADCK3; construct: gene CABC1; settings: concentration: 1 μM, replicates: in singlicate; n = 1
Threshold check on %Inh: at or above 3% gives true, strictly below gives false.

Solved cases below.
Compound: CN1CCN(CCCNc2nccc(-c3c(-c4ccc(F)cc4)nn4cc(C(F)(F)F)ccc34)n2)CC1 [GW621581]
Class Assignment: true
//
Compound: O=C(Nc1n[nH]c2cc(-c3ccoc3)ccc12)C1CC1 [SB-738481]
Class Assignment: false
//
Compound: COC(=O)Nc1nc2cc(Oc3ccc(NC(=O)Nc4cc(C(F)(F)F)ccc4F)cn3)ccc2[nH]1.Cl.Cl [GW681170]
Class Assignment: false
//
Compound: c1ccc(Oc2ccc(Nc3ccnc4cc(-c5ccc(CNCCN6CCOCC6)o5)ccc34)cc2)nc1 [GW567145]
Class Assignment: false

QUERY: Check the entry COc1ccc(Nc2nccc(N3CCC(NC(=O)Nc4cccc(OC)c4)C3)n2)cc1 (stereo not drawn) [GSK1379742] : does %Inh equal or exceed 3%?
RESULT: false

QUERY: Decide: %Inh of COc1cc(Nc2nccc(N3CCC(NC(=O)c4cc5ccccc5s4)C3)n2)cc(OC)c1OC (stereo not drawn) [GSK1379760] >= 3%?
RESULT: false

QUERY: Quick check, %Inh >= 3%? O=c1[nH]cc(-c2ccc(N3CCOCC3)cc2)c2sc(-c3cn[nH]c3)cc12 [GSK2276055]
RESULT: false

QUERY: Entry COc1cccc(C(=O)Nc2cccc(Oc3ccc4nc(NC(=O)C5CC5)cn4n3)c2)c1 : is its %Inh no less than 3%?
RESULT: true

QUERY: Textbook exercise: given the entry C[C@@H]1CC[C@@H](C(=O)Nc2ccccc2)CN1c1cc(-c2ccc3c(N)n[nH]c3c2)nc(N)n1 [GSK2286062] , state whether its %Inh is greater than or equal to 3%.
RESULT: true

QUERY: hey, is %Inh for this one >= 3%? CSc1cccc2c(-c3ccncn3)c(-c3ccc(F)cc3)nn12 [GW514786]
RESULT: true

---

system: TBK1; conditions: concentration: 1 μM, replicates: in singlicate; n = 1
Quantity: %Inh (%)
Express it in %; write the number only.

Compound: COc1ccc(Nc2nccc(NCCNC(=O)c3cc4ccccc4s3)n2)cc1 [GSK1379896]
Quantity: %Inh
Val: 2

QUERY: Missing value: %Inh, TBK1, entry Cn1cc(-c2ccc3c(c2)CCN3C(=O)Cc2cccc(Cl)c2)c2c(N)ncnc21 [GSK2606590] . Fill in?
RESULT: 27

QUERY: What value of %Inh on TBK1 does Cc1ccc(C)c(NC(=O)NC2CCN(c3ccnc(Nc4ccc(F)cc4)n3)C2)c1 (stereo not drawn) [GSK1379720] have?
RESULT: 0
